What Hheps CL was measured for each of the following?
# Test system: human hepatocytes
# ASSAY_PROTOCOL: Human Hepatocyte Stability Assay (predicted hepatocyte clearance)
# Format: in vitro ADME
# CONDITION_CONTEXT: predicted hepatocyte clearance, human hepatocytes, 1 μM compound, 0-6 hours
Give bare numbers, in L/h/kg.

Consider the worked cases shown below.
{"COMPOUND": "Cc1c(-c2cncc(N)n2)nc(Nc2ccc(N3CCN(C4COC4)CC3)cc2)c2nccn12 [Ex.-4]", "EXPERIMENTAL_ENDPOINT": "Hheps CL", "UNIT_NAME": "L/h/kg", "VALUE_OBSERVED": 0.08}
{"COMPOUND": "Nc1cncc(-c2cn3ccnc3c(Nc3ccc(N4CCN(C5COC5)CC4)c(OCCO)c3)n2)n1 [Ex.-5]", "EXPERIMENTAL_ENDPOINT": "Hheps CL", "UNIT_NAME": "L/h/kg", "VALUE_OBSERVED": 0.07}
{"COMPOUND": "Nc1cncc(-c2cn3ccnc3c(Nc3ccc(N4CCN(CC(CO)CO)CC4)cc3)n2)n1 [Ex.-6]", "EXPERIMENTAL_ENDPOINT": "Hheps CL", "UNIT_NAME": "L/h/kg", "VALUE_OBSERVED": 0.08}

Attention now turns to another entry.
Consider the compound Nc1cncc(-c2cn3ccnc3c(Nc3ccc(N4CCO[C@@H](CO)C4)cc3)n2)n1 [Ex.-3] and give its recorded Hheps CL.
0.09

---

Can you tell me Hheps CL for the items I'm about to list?
# Tested on: human hepatocytes
# ASSAY_PROTOCOL: Human Hepatocyte Stability Assay (predicted hepatocyte clearance)
# Type: in vitro ADME
# CONDITION_CONTEXT: comparison table with known compounds; predicted hepatocyte clearance (L/hr/kg)
Answers are plain numbers, in mL/min/kg.

In the examples that follow, each entry is paired with its recorded Hheps CL.
{"COMPOUND": "COc1ccc(Nc2nc(-c3cccc(N)c3)cn3ccnc23)cc1OC [reference compound]", "Hheps CL [mL/min/kg]": 4}
{"COMPOUND": "Cc1c(-c2cncc(N)n2)nc(Nc2ccc(N3CCN(C4COC4)CC3)cc2)c2nccn12 [Ex.-4]", "Hheps CL [mL/min/kg]": 1.3}
{"COMPOUND": "Nc1cncc(-c2cn3ccnc3c(Nc3ccc(N4CCO[C@@H](CO)C4)cc3)n2)n1 [Ex.-3]", "Hheps CL [mL/min/kg]": 1.5}
{"COMPOUND": "Nc1cncc(-c2cn3ccnc3c(Nc3ccc(N4CCN(CC(CO)CO)CC4)cc3)n2)n1 [Ex.-6]", "Hheps CL [mL/min/kg]": 1.3}
{"COMPOUND": "Nc1cncc(-c2cn3ccnc3c(Nc3ccc(N4CCN(C5COC5)CC4)c(OCCO)c3)n2)n1 [Ex.-5]", "Hheps CL [mL/min/kg]": 1.2}

// next item, Hheps CL requested
Item Cc1ncc(-c2cn3ccnc3c(Nc3ccc(N4CCOCC4)cc3)n2)cc1N [reference compound] : provide Hheps CL
13.3
